Test system: transglutaminase (TGase)
test-method-notes: Measurement of TG (TGase inhibitory activity, monodansyl cadaverine / N,N-dimethylcasein fluorescence, FDSS 3000)
Format: biochemical
cond: TGase activity with compound (10 mM, 1 μL in 0.1 ml enzyme reaction solution); DMSO control taken as 100
# Lookup of reported TGase activity remaining (% of DMSO control = 100) keyed by entry
Hey, just send me the number, nothing else.

GET /values?readout=TGase activity remaining (% of DMSO control = 100)&item= NCCOB(c1ccccc1)c1ccc(B(OCCN)c2ccccc2)o1 [Example 384, bis(2,5-(phenylaminoethoxyboryl))furan]
60

Okay, and Cc1ccc(B(O)c2ccc(-c3ccc(B(O)c4ccc(C)cc4)cc3)cc2)cc1 [Example 363] ?
97

Okay, and NCCC(N)C(=O)OB(c1ccccc1)c1ccc(COCc2ccc(B(OC(=O)C(N)CCN)c3ccccc3)cc2)cc1 (stereo not shown) [Example 453] ?
113

Okay, and c1ccc(B(OCc2ccccn2)c2cccc3ccccc23)cc1 [Example 202, phenyl naphthyl 2-pyridylmethylborinate] ?
91

Okay, and CCN(CC)CC.CN(C)c1ccc2c(-c3ccc(NC(=S)NCCCCC(N)C(=O)OB(c4ccccc4)c4ccccc4)cc3C(=O)[O-])c3ccc(=[N+](C)C)cc-3oc2c1 (stereo not shown) [Example 176] ?
47

Others:
GET /values?readout=TGase activity remaining (% of DMSO control = 100)&item= NCCCC(N)C(=O)OB(c1ccccc1)c1ccccc1 (stereo not shown) [Example 245, diphenyl(ornithine-O,N)borane]
94

Okay, and OB(c1ccccc1)c1ccccc1COCc1ccccc1B(O)c1ccccc1 [Example 486] ?
52

----------
Test system: SOC (store operated calcium channel)
test-method-notes: Measurement of SOC IC50 (thapsigargin store depletion, calcium re-addition, CHO cells)
Assay type: cell-based
cond: Cricetulus griseus, CHO, CHO cells, thapsigargin store depletion; read-out: SOC IC50
metric-name: pIC50
// returns pIC50 (minus log10 of molar concentration), number only

Notebook entry, SOC (store operated calcium channel) assay: pIC50 of NCCSB(c1ccccc1)c1cccc(COCc2cccc(B(SCCN)c3ccccc3)c2)c1 = ?
6.30

Others:
Notebook entry, SOC (store operated calcium channel) assay: pIC50 of OB(c1ccccc1)c1ccccc1 = ?
5.40

Okay, and NC(=O)CC(N)C(=O)OB(c1ccccc1)c1cccc(COCc2cccc(B(OC(=O)C(N)CC(N)=O)c3ccccc3)c2)c1 (stereo not shown) ?
5.40

Okay, and CN(C)CCOB(c1ccccc1)c1cccc(COCc2cccc(B(OCCN(C)C)c3ccccc3)c2)c1 ?
5.70

----------
Test system: transglutaminase (TGase)
test-method-notes: Measurement of TG (TGase inhibitory activity, monodansyl cadaverine / N,N-dimethylcasein fluorescence, FDSS 3000)
Type: biochemical
cond: TGase inhibitory activity measurement; unit not given
metric-name: TGase activity remaining (% of DMSO control = 100)
Hey, just send me the number, nothing else.

Sample answers from the record:
GET /values?readout=TGase activity remaining (% of DMSO control = 100)&item= NCC(N)C(=O)OB(c1ccccc1)c1ccc(Oc2ccc(B(OC(=O)C(N)CN)c3ccccc3)cc2)cc1 (stereo not shown) [Example 436]
104

Okay, and NCCCCC(N)C(=O)OB(c1ccccc1)c1ccc(Oc2ccc(B(OC(=O)C(N)CCCCN)c3ccccc3)cc2)cc1 (stereo not shown) [Example 437] ?
119

Okay, and CC(CNCCN)OB(c1ccccc1)c1cccc(COCc2cccc(B(OC(C)CNCCN)c3ccccc3)c2)c1 (stereo not shown) [Example 470] ?
19

Turning to the following molecule.
GET /values?readout=TGase activity remaining (% of DMSO control = 100)&item= NCCNCCOB(c1ccccc1)c1ccc(COCc2ccc(B(OCCNCCN)c3ccccc3)cc2)cc1 [Example 399]
53
